Tested on: blood cancer cell lines (e.g. HL-60, Jurkat, Raji, Ramos, Daudi, MOLT-4)
MEASUREMENT DESCRIPTION: Cell based assay, cell viability (CellTiter-Glo), blood cancer cell lines
CONDITION NOTES: Homo sapiens, blood cancer cell line U-937, 72 hours, read-out: IC50, U-937
READOUT TYPE: IC50

Some solved entries appear below for comparison.
[
  {
    "MOLECULE": "CC(=O)c1c([S+]([O-])Cc2ccccc2)nc2c(Br)ccc(Cl)c2c1O (centres unmarked)",
    "EXPERIMENTAL TARGET": "blood cancer cell lines (e.g. HL-60, Jurkat, Raji, Ramos, Daudi, MOLT-4)",
    "RESULT": "> 2000 nM"
  },
  {
    "MOLECULE": "CC(=O)c1c(SCc2cc(F)cc(F)c2)[nH]c2c(Br)ccc(Cl)c2c1=O",
    "EXPERIMENTAL TARGET": "blood cancer cell lines (e.g. HL-60, Jurkat, Raji, Ramos, Daudi, MOLT-4)",
    "RESULT": "> 2000 nM"
  },
  {
    "MOLECULE": "COc1cc(S(F)(F)(F)(F)F)ccc1C[S+]([O-])c1[nH]c2c(Br)ccc(Cl)c2c(=O)c1C(C)=O (centres unmarked)",
    "EXPERIMENTAL TARGET": "blood cancer cell lines (e.g. HL-60, Jurkat, Raji, Ramos, Daudi, MOLT-4)",
    "RESULT": "> 2000 nM"
  }
]

Batch request: IC50 for each of the following molecules.
1. COc1ccccc1[S+]([O-])c1[nH]c2c(Br)ccc(Cl)c2c(=O)c1C(C)=O (centres unmarked)
2. CC(=O)c1c(SC(C)C)[nH]c2c(Br)ccc(Cl)c2c1=O
3. COc1cccc2[nH]c(SCc3ccc(S(F)(F)(F)(F)F)cc3)c(C(C)=O)c(=O)c12
4. CC(=O)c1c([S+]([O-])Cc2ccc(SC(F)(F)F)cc2)[nH]c2c(Br)ccc(Cl)c2c1=O (centres unmarked)
5. Cc1cc(C[S+]([O-])c2[nH]c3c(Cl)ccc(Cl)c3c(=O)c2C(=O)C2CC2)no1 (centres unmarked)

1. > 2000 nM
2. > 2000 nM
3. > 2000 nM
4. 1750 nM
5. 1350 nM

###

Tested on: lung cancer cell lines (e.g. NCI-H23, NCI-H1229)
MEASUREMENT DESCRIPTION: Cell based assay, cell viability (CellTiter-Glo), lung cancer cell lines
CONDITION NOTES: Homo sapiens; NCI-H23 cells; 72 hours treatment; CellTiter-Glo; read-out: IC50, lung cancer cell line NCI-H23
READOUT TYPE: pIC50
Give bare numbers, as −log10 of the molar value.

Some solved entries appear below for comparison.
[
  {
    "MOLECULE": "CC(=O)c1c([S+]([O-])Cc2ccc(OC(F)(F)F)cc2)[nH]c2c(Br)ccc(Cl)c2c1=O (stereo not shown)",
    "RESULT NUMBER": 5.84
  },
  {
    "MOLECULE": "COC(=O)c1ccc(C[S+]([O-])c2[nH]c3c(Cl)ccc(Cl)c3c(=O)c2C(C)=O)cc1 (stereo not shown)",
    "RESULT NUMBER": 5.74
  },
  {
    "MOLECULE": "CC(=O)c1c([S+]([O-])Cc2cccc(S(F)(F)(F)(F)F)c2)[nH]c2c(Br)ccc(Cl)c2c1=O (stereo not shown)",
    "RESULT NUMBER": 6.02
  }
]

Batch request: pIC50 for each of the following molecules.
1. COc1cc(S(F)(F)(F)(F)F)ccc1C[S+]([O-])c1[nH]c2c(Br)ccc(Cl)c2c(=O)c1C(C)=O (stereo not shown)
2. COc1cccc(C[S+]([O-])c2[nH]c3c(Br)ccc(Cl)c3c(=O)c2C(C)=O)c1 (stereo not shown)
3. CC(=O)c1c([S+](C)[O-])n(C(=O)c2ccc(Br)cc2)c2c(Br)ccc(Cl)c2c1=O (stereo not shown)
4. CC(=O)c1c([S+]([O-])Cc2ccc(C#N)s2)[nH]c2c(Br)ccc(Cl)c2c1=O (stereo not shown)

1. 5.92
2. 5.89
3. 6.05
4. 5.79
